Entry source: PubChem BioAssay (NCI)

assay: NCI Yeast Anticancer Drug Screen. Data for the mlh1 rad18 strain (AID 175); details: S. cerevisiae mlh1 rad18 strain growth inhibition; at 50.0 µM; active compounds read high
The panel holds about 79,000 compounds, 15% with a hit somewhere; the sample as a whole holds those more often. Calls of active or inactive are those of the source. Rule as the data show it: active = growth inhibition above about 70%; inactive = the rest.
metric-name: growth inhibition

INSERT INTO measurements (compound, metric_name, assay_value) VALUES
  ('CC(C)CC(C)OC(=O)Cc1ccccc1 (stereo not given)', 'growth inhibition', '31.2% (inactive)'),
  ('CN(C)CCCNc1c2c(nc3ccc(Cl)cc13)CCCC2', 'growth inhibition', '-7.3% (inactive)'),
  ('CCOP(C)(=O)C(N)Cc1ccc(OC)c(OC)c1 (stereo not given)', 'growth inhibition', '-34.5% (inactive)'),
  ('CCOC(=O)C(Cc1c[nH]c2ccccc12)NC(=O)/C=C/N(CCCl)CCCl (stereo not given)', 'growth inhibition', '22.2% (inactive)'),
  ('O=S1(=O)OCCO1', 'growth inhibition', '7.9% (inactive)'),
  ('O=P(N1CCNCC1)(N1CCNCC1)N1CCNCC1', 'growth inhibition', '-20.2% (inactive)'),
  ('Nc1nc(N)c2[nH]c(N)nc2n1', 'growth inhibition', '-55.3% (inactive)'),
  ('O=S1(=O)CCCCO1', 'growth inhibition', '4.4% (inactive)'),
  ('CCN1CCc2cc(OC)c(OC)cc2C1', 'growth inhibition', '3.5% (inactive)'),
  ('CC(=O)O[C@H]1C(=O)[C@@]2(C)[C@H]([C@H](OC(=O)c3ccccc3)[C@@]3(O)C[C@H](O)C(C)=C1C3(C)C)[C@]1(OC(C)=O)CO[C@@H]1C[C@@H]2O', 'growth inhibition', '-0.15% (inactive)'),
  ('COC(N)=O', 'growth inhibition', '-8.3% (inactive)'),
  ('O=C1CN=C(c2ccccc2)c2cc(Cl)ccc2N1', 'growth inhibition', '32.2% (inactive)'),
  ('CN1CCC2(CC1)C(C#N)C(=O)NC(=O)C2C#N (stereo not given)', 'growth inhibition', '7.75% (inactive)'),
  ('CN1C(=O)C[N+]([O-])=C(c2ccccc2)c2cc(Cl)ccc21', 'growth inhibition', '-13.7% (inactive)'),
  ('COc1cc([As](=O)(O)O)c(OC)cc1N', 'growth inhibition', '-17.1% (inactive)'),
  ('CC(=O)Nc1cc([As](C)(=O)O)ccc1O', 'growth inhibition', '-1.85% (inactive)'),
  ('O=S(=O)(F)c1ccccc1S(=O)(=O)Cl', 'growth inhibition', '21.6% (inactive)'),
  ('O=S1(=O)OCCOS(=O)(=O)C1(Cl)Cl', 'growth inhibition', '-8.65% (inactive)'),
  ('c1ccc(-c2cc(-c3ccccc3)c(OOc3c(-c4ccccc4)cc(-c4ccccc4)cc3-c3ccccc3)c(-c3ccccc3)c2)cc1', 'growth inhibition', '16.6% (inactive)'),
  ('CC1=C(Cl)C=CP(=O)(Oc2ccccc2)C1 (stereo not given)', 'growth inhibition', '-8.15% (inactive)'),
  ('CCC1(C(C)C=C(C)C)C(=O)NC(=O)NC1=O (stereo not given)', 'growth inhibition', '-10.2% (inactive)'),
  ('CC1(C)O[C@]2(C)CC[C@@H]1[C@@H](O)[C@@H]2N1CCCC1', 'growth inhibition', '0.15% (inactive)'),
  ('O[C@H]1[C@H](O)[C@@H](O)CN2CC[C@H](O)[C@H]12', 'growth inhibition', '-24.6% (inactive)'),
  ('O=C(O)C(=O)O.[NH2-].[NH2-].[Pt+2]', 'growth inhibition', '-3.8% (inactive)'),
  ('Cc1cc2[nH]c3c(C#N)c(OC(=O)N(C)C)c(-c4ccccc4)c(=O)n3c2cc1C', 'growth inhibition', '1.6% (inactive)'),
  ('[N-]=[N+]=CC(=O)CCC(=O)C=[N+]=[N-]', 'growth inhibition', '-67.8% (inactive)'),
  ('COc1ccc2ccc([Se]c3ccc4ccc(OC)cc4c3)cc2c1', 'growth inhibition', '-1.1% (inactive)'),
  ('CCC[As](=O)(O)Cc1ccccc1C', 'growth inhibition', '22.1% (inactive)'),
  ('COc1ccc(OP2OCC(C)O2)cc1 (stereo not given)', 'growth inhibition', '2.5% (inactive)'),
  ('COc1ccc([Se]c2ccc(OC)cc2OC)c(OC)c1', 'growth inhibition', '-13.2% (inactive)'),
  ('C[C@]12CC[C@@H](O)C[C@H]1[C@@H](O)C[C@@H]1[C@@H]2CC[C@]2(C)C(=O)CC[C@@H]12', 'growth inhibition', '-11.1% (inactive)'),
  ('Cc1ccc([Se][Se]c2ccc(C)cc2)cc1', 'growth inhibition', '43% (inactive)'),
  ('CNCCc1cccs1', 'growth inhibition', '4.7% (inactive)'),
  ('Cn1c(=O)oc(=O)c2ccccc21', 'growth inhibition', '6.85% (inactive)'),
  ('OCCN1CCN(c2cccc(Cl)c2)CC1', 'growth inhibition', '-4.8% (inactive)'),
  ('OCC(S)CS (stereo not given)', 'growth inhibition', '-13.4% (inactive)'),
  ('CCC1C2Cc3ccc(O)cc3C1(CC)CCN2C (stereo not given)', 'growth inhibition', '-13.2% (inactive)'),
  ('[CH3][Sn]([CH3])([O]S(=O)c1ccc(Cl)cc1)[O]S(=O)c1ccc(Cl)cc1 (stereo not given)', 'growth inhibition', '-11.1% (inactive)'),
  ('Clc1cc2nncc(N3CC3)c2cc1Cl', 'growth inhibition', '-21.4% (inactive)'),
  ('O=C(O)c1cccc([As]=[As]c2cccc(C(=O)O)c2)c1 (stereo not given)', 'growth inhibition', '1% (inactive)'),
  ('Nc1cccc2c1Cc1cc([N+](=O)[O-])ccc1-2', 'growth inhibition', '-1.4% (inactive)'),
  ('O=C1NC2(CCCC2)C(=O)N1CCCN(CCCl)CCCl', 'growth inhibition', '3.2% (inactive)'),
  ('CCOP(=O)(CC(=O)c1cc2ccccc2[nH]1)OCC', 'growth inhibition', '-19.8% (inactive)'),
  ('Cc1c[nH]cn1.Cc1c[nH]cn1.Cc1c[nH]cn1.Cc1c[nH]cn1.Cc1c[nH]cn1.Cc1c[nH]cn1.N#CS.[Mn+2]', 'growth inhibition', '5.05% (inactive)'),
  ('COC(=O)C1=CCCN(C)C1', 'growth inhibition', '3.7% (inactive)'),
  ('CC1NC1(c1ccccc1)n1ccnc1 (stereo not given)', 'growth inhibition', '3.4% (inactive)'),
  ('Nc1ccc(CCc2ccc(S(=O)(=O)F)cc2)cc1', 'growth inhibition', '92.6% (active)'),
  ('NC(=O)C[N+](=O)[O-]', 'growth inhibition', '-2.2% (inactive)'),
  ('COC12C(COC(N)=O)C3=C(C(=O)C(C)=C(N4CC4)C3=O)N1CC1NC12 (stereo not given)', 'growth inhibition', '87.2% (active)'),
  ('Cc1ccccc1NC(N)=S', 'growth inhibition', '15.7% (inactive)');

====

experiment: NCI Yeast Anticancer Drug Screen. Data for the mlh1 rad18 strain (AID 175); conditions: S. cerevisiae mlh1 rad18 strain growth inhibition; at 50.0 µM
About 79,000 compounds went through this panel and 15% of them were active in at least one assay; those are over-represented in the sample as a whole. Active and inactive are the calls of the source. No stated cut-off is given here; in the data, active means growth inhibition above about 70%; inactive means the rest.
Outcome codes: active, inactive

INSERT INTO assay_data (compound, group_label) VALUES
  ('[C-]#[O+].[C-]#[O+].[C-]#[O+].[C-]#[O+].[C-]#[O+].[CH3][Sn]([Cl])[c]1ccccc1.[Mn]', 'active'),
  ('O=C(NC(Cl)=C(Cl)Cl)P(=O)(c1ccccc1)c1ccccc1', 'inactive'),
  ('C/C=C/C(=O)O', 'inactive'),
  ('O=C(CCl)Oc1ccccc1', 'inactive'),
  ('CC(=O)OC(C[N+](=O)[O-])C(Cl)(Cl)Cl (stereo unspecified)', 'inactive'),
  ('c1ccc2c(c1)c1ccccc1c1n[se]nc21', 'inactive'),
  ('C[N+](C)(C)CC1CCCC(C[N+](C)(C)C)C1=NO (stereo unspecified)', 'inactive'),
  ('CC1(C)N=C(N/N=C/c2ccccc2)SP1(=O)NNc1ncccn1 (stereo unspecified)', 'inactive'),
  ('[Br][Sn]([Br])([CH2][Sn]([Br])([c]1ccccc1)[c]1ccccc1)[c]1ccccc1', 'active'),
  ('C[C@]12CC[C@@H](OC(=O)N(CCCl)N=O)C[C@@H]1CC[C@@H]1[C@@H]2CC[C@]2(C)C(=O)CC[C@@H]12', 'inactive'),
  ('COc1ccc2c(c1)CC(CN1CCC3(CC1)C(=O)N(C)CN3c1ccccc1)O2 (stereo unspecified)', 'inactive');

====

# reported growth inhibition; entries follow
experiment: NCI Yeast Anticancer Drug Screen. Data for the bub3 strain (AID 167); details: S. cerevisiae bub3 mutant strain, at 50.0 µM, active compounds read high
The panel holds about 79,000 compounds, 15% with a hit somewhere; the sample as a whole holds those more often.
metric-name: growth inhibition (%)

INSERT INTO measurements (compound, assay_value) VALUES
  ('CN1CCc2cc3c(cc2[C@H]1[C@@H]1OC(=O)c2c1ccc1c2OCO1)OCO3', -29.1),
  ('O=C1CN2CCC1CC2', -23.2),
  ('N/C(=N\NC(=O)c1ccc([N+](=O)[O-])cc1)N[N+](=O)[O-]', 11.2),
  ('COC(=O)C1=COC(C)[C@H]2CN3CCc4c([nH]c5cc(OC)ccc45)C3CC12 (stereo partly specified)', -12.8),
  ('CN(C)CCCNc1c2c(nc3ccc(Cl)cc13)CCCC2', 9.15),
  ('O=C1OC(=O)C2CC3C(CC12)C1(Cl)C(Cl)=C(Cl)C3(Cl)C1(Cl)Cl (stereo unspecified)', -17.4),
  ('CC1=CC2=C(C)C3(CC3)[C@@](C)(O)C(=O)C2=C1', 26.9),
  ('CCOC(=O)C1C2(C(C)=O)C=Nc3c(C#N)cnn3C12C(=O)OCC (stereo unspecified)', 4.2),
  ('O=C(O)C(CP(=O)(O)O)=C(Cl)Cl', -6.15),
  ('N#Cc1ccccn1', 3.5),
  ('C#CCn1c(I)cc2c(c1=O)COC(=O)[C@]2(O)CC', 6.35),
  ('CC(=O)Nc1nc2c(ncn2C2OCC(OC(C)=O)C(OC(C)=O)C2OC(C)=O)c(=O)[nH]1 (stereo unspecified) (tested in a mixture with another compound)', 6.1),
  ('Cc1cc(C)c(CCN(C)C)c(C)c1C', 1),
  ('Cn1cnnc1[N+](=O)[O-]', 3.25),
  ('CC[As](=O)(O)CCCc1ccccc1', -0.15),
  ('Cc1ccc2c(c1)N(CCCl)c1c(ccc3ccccc13)S2', 22.2),
  ('C[N+]1(C)C2CCC1CC(OC(=O)C(CO)c1ccccc1)C2 (stereo unspecified)', -51.5),
  ('Cc1ccnc(NN=O)c1', -17.1),
  ('O=[N+]([O-])c1ccc(P2(=O)Nc3ccccc3N2)cc1', 0.25),
  ('CN1C(=O)c2ccccc2NC(=O)C12O[C@@H]2c1ccccc1 (stereo partly specified)', -9.7),
  ('CC(=O)NCN(C)[N+](=O)[O-]', -19.8),
  ('CCC(C)(Cl)c1ccccc1 (stereo unspecified)', -21.4),
  ('COc1ccc(N)cc1OC', 6.7),
  ('Oc1cccc(-c2ccccc2)c1', 30.1),
  ('NCCc1c[nH]c2ccccc12', -0.75),
  ('c1ccc(C[N+]23CN4CN(CN(C4)C2)C3)cc1', -18.2);
